System: DLD-1
ASSAY METHOD TEXT: NCI tumour cell line growth inhibition, 48 h
The source made the active and inactive calls. No stated cut-off is given here; in the data, active = GI50 up to about 1.1 µM and inactive = higher.
Write down the outcome that applies. Available outcomes: True for active, False for inactive

Known results for molecules:
CCOC(=O)NC(=O)c1cn(CC(=O)NCC(=O)NCC(=O)N2CCN(CCn3c(C)nc(C(N)=O)c3N)CC2)c(=O)[nH]c1=O ... False
COC(=O)c1cc(C)c(C)c2c1NC(=O)CNC2=O ... False
[N-]=[N+]=NC(c1cn(C2CC(O)C(CO)O2)c(=O)[nH]c1=O)C(Cl)Br (stereo unspecified) ... False
[N-]=[N+]=NC1CC(n2cc(COCC(F)(F)F)c(=O)[nH]c2=O)OC1CO (stereo unspecified) ... False
O=CCCn1[nH]c(=O)ccc1=O ... False
c1ccc2c(CNCCCCCCNCc3cccc4ccccc34)cccc2c1 ... False

Ask | GET /call?item= CN(C)CCCNC(=O)N/N=C/c1cccc([N+](=O)[O-])c1 returns the recorded outcome of this test.
Reply | False

Ask | GET /call?item= C=CCCCN1CCCC(C)C1=S (stereo unspecified) returns the recorded outcome of this test.
Reply | False

Ask | GET /call?item= COC1C2C[C@@H](O)CCC2C(C(=O)OCCl)C[C@H]1O (stereo partly specified) returns the recorded outcome of this test.
Reply | False

Ask | GET /call?item= CC(C)=CC(=O)OC1C2C(C)=CC(O)C(O)C2(C)C2C3(O)OCC24C(CC(=O)OC14)C(C)C3O (stereo unspecified) returns the recorded outcome of this test.
Reply | True

Ask | GET /call?item= O=c1[nH]nc2ccccc2c1Cl returns the recorded outcome of this test.
Reply | False
